# target or system: High affinity nerve growth factor receptor (Homo sapiens, UniProt P04629)
# Sequence (P04629 whole entry): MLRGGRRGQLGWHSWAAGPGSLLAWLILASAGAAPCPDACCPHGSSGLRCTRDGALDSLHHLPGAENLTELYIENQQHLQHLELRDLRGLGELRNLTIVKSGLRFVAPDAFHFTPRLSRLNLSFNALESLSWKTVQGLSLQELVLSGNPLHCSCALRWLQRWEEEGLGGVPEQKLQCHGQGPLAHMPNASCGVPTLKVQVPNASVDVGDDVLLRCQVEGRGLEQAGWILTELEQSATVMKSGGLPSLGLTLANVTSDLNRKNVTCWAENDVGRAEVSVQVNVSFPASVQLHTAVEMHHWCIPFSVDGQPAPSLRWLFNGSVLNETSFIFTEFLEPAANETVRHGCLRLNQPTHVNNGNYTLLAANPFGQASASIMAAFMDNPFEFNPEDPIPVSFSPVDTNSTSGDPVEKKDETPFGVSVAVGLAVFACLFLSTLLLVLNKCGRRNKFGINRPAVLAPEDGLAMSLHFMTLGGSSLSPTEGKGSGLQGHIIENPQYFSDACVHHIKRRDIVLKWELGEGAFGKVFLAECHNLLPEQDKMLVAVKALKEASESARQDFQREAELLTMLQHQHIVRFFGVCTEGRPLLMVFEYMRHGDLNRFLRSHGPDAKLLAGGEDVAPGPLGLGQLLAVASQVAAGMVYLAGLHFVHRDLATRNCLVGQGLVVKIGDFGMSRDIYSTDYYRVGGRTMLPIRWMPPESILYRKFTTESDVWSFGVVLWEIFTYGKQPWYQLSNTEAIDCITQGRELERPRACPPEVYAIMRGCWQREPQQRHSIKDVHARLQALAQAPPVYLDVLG
Response field label takes true (1) when IC50 is strictly below 8 nM and false (0) in all other cases.

Check out these entries, answers already filled in.
q: Given O=C1Nc2ccc3ncsc3c2/C1=C/Nc1ccc(S(=O)(=O)Nc2ccccn2)cc1 , is recorded IC50 strictly lower than 8 nM?
a: false (0)

q: Does O=C1Nc2ccc(I)cc2C1=Cc1cc(Br)c(O)c(Br)c1 [GW305074X] have IC50 strictly under 8 nM?
a: false (0)

q: IC50 strictly < 8 nM for this compound? O=C1Nc2ccccc2/C1=C/Nc1ccc2[nH]c(=O)[nH]c2c1 [GW284408X]
a: true (1)

More entries:
q: Record CS(=O)(=O)Nc1ccc(N/C=C2\C(=O)Nc3ccccc32)cc1 [GW278681X] : is its IC50 strictly below 8 nM?
a: true (1)

q: Problem: For the compound O=C1Nc2ccccc2/C1=C1\CCc2cc(O)ccc21 , is IC50 under 8 nM?
a: true (1)

q: Check if IC50 falls below 8 nM for Cn1cc(/C=C2\C(=O)Nc3ncccc32)c2ccccc21 .
a: false (0)

q: Just wondering, is IC50 of NS(=O)(=O)c1cccc(N/C=C2\C(=O)Nc3ccccc32)c1 [GW275616X] below 8 nM?
a: false (0)

====

The entries below come with measured IC50 values attached.
# target or system: Cyclin-dependent kinase 2/cyclin A (Homo sapiens, UniProt P24941)
# assay summary: Inhibition of Cyclin-dependent kinase 2 cyclin A

Answered examples (5):
q: Return reported IC50; argument: CS(=O)(=O)Nc1ccc(N/C=C2\C(=O)Nc3ccccc32)cc1 [GW278681X]
a: 8 µM

q: Given COc1ccccc1-c1cc(/C=C2\C(=O)Nc3ncc(Br)cc32)cc(Br)c1O [GW442130X] , state its recorded IC50.
a: 10.4 µM

q: I am curious: what IC50 value has been reported for NS(=O)(=O)c1cccc(N/C=C2\C(=O)Nc3ccccc32)c1 [GW275616X] ?
a: > 10 µM

q: Consider the compound Cn1cc(/C=C2\C(=O)Nc3ncccc32)c2ccccc21 and give its measured IC50.
a: > 6 µM

q: So what does the record say about IC50 for O=C1Nc2ccccc2/C1=C/Nc1ccc2[nH]c(=O)[nH]c2c1 [GW284408X] ?
a: 2.5 µM

---
q: Please give the measured IC50 for this compound: O=C1Nc2ncc(Br)cc2/C1=C/c1cccc(Oc2ccccc2)c1
a: > 50 µM

q: // query IC50 value for entry O=C1Nc2ccccc2/C1=C1\CCc2cc(O)ccc21
a: 8 µM

q: Give the measured IC50 of O=C1Nc2ccccc2/C1=C/Nc1ccc(-n2cncn2)cc1 [GW301789X] .
a: 7.2 µM
